Target chain: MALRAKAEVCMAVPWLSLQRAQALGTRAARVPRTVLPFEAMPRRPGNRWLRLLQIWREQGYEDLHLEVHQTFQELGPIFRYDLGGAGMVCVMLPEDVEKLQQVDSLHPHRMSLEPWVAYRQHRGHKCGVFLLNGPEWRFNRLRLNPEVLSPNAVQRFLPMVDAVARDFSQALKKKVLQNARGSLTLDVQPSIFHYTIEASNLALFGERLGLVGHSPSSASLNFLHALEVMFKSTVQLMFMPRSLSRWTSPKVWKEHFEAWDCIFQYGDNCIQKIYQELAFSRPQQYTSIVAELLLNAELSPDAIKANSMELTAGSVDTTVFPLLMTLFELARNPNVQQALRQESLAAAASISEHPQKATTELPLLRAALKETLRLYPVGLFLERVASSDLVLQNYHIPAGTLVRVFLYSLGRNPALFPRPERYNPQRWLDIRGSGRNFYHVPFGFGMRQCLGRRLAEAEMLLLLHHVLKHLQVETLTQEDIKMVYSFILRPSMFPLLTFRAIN
quantity-measured: IC50 (µM)
Field format: number, assumed µM, no unit text.

Input: Give the measured IC50 of "C[C@]12CC[C@H](O)CC1=CC[C@@H]1[C@@H]2CC[C@]2(C)C(c3cccnc3)=CC[C@@H]12" .
Output: 1.61

The measurements presented in this section are drawn from BindingDB's records for doi:10.1021/jm800355c.
